# TEST TARGET: C3aR (Homo sapiens, UniProt Q16581)
# Sequence (Q16581 1-482): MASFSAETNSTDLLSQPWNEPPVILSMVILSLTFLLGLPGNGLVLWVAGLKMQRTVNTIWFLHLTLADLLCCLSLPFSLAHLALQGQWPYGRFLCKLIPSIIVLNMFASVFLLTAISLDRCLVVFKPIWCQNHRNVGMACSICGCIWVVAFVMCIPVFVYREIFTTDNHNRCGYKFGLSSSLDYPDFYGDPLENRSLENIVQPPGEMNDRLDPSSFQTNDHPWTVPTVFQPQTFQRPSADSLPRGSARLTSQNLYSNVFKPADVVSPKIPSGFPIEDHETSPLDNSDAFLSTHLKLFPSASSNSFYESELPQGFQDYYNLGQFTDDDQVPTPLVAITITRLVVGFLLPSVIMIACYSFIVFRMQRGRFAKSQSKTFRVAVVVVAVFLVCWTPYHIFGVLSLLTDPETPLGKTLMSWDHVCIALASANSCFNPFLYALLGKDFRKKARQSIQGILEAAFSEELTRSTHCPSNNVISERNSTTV
# ASSAY PROTOCOL: Histamine secretion in human LAD2 mast cells (agonist mode)
# Type: cell-based
# Design: Concentration-dependent histamine secretion in human LAD2 mast cells; endogenous in cells; host or cells: LAD2 human mast cells
# DETAILS: compound alone, 30 min, n ≥ 3, ± SEM
pEC50: −log10 of the molar value.
REPORTED ENDPOINT: pEC50

A: N=C(N)NCCC[C@H](NC(=O)c1csc(C(c2ccccc2)c2ccccc2)n1)C(=O)O [Compound 1]
B: Cc1sc(C(c2ccccc2)c2ccccc2)nc1C(=O)N[C@@H](CCCNC(=N)N)C(=O)O [Compound 2]
C: Cc1[nH]c(C(c2ccccc2)c2ccccc2)nc1C(=O)N[C@@H](CCCNC(=N)N)C(=O)O [Compound 3]
Exercise: Rank the 3 compounds: largest pEC50 first, smallest last. Output the labels ranked as instructed.
Key: C, A, B

* * *

# ASSAY PROTOCOL: Rat liver microsomal stability
# Format: in vitro ADME
# DETAILS: rat, liver microsomes, pH 7.4; parallel control experiment, 37 °C; read-out: t1/2 in rat liver microsomes
REPORTED ENDPOINT: half-life at 0.915 µM

Exercise: What value of half-life at 0.915 µM has been recorded for this entry: H-SLIGRL-NH2 [SLIGRL-NH2, reference compound]
Key: < 5 min

* * *

# TEST TARGET: C3aR (Homo sapiens)
# ASSAY PROTOCOL: Inhibition of hC3a-induced histamine secretion in human LAD2 mast cells (antagonist mode)
# Assay type: cell-based
# Parameters: Concentration-dependent histamine secretion in human LAD2 mast cells; endogenous in cells; host or cells: LAD2 human mast cells
# DETAILS: hC3a 100 nM, pre-treated 30 min, n ≥ 3, ± SEM
REPORTED ENDPOINT: IC50 (nM)
Please give a number only; it is taken to be in nM.

Exercise: Identify the measured IC50 of N=C(N)NCCCC(NC(=O)c1ccc(C(c2ccccc2)c2ccccc2)s1)C(=O)O (stereo not shown) for C3aR (Homo sapiens).
Key: 3.5

* * *

# TEST TARGET: C3aR (Homo sapiens)
# ASSAY PROTOCOL: Inhibition of hC3a-induced Ca2+ release in human monocyte-derived macrophages
# Assay type: cell-based
# Parameters: Concentration-dependent Ca^2+ release in human monocyte-derived macrophages (HMDMs); endogenous in cells; host or cells: primary human monocyte-derived macrophages (HMDMs)
# DETAILS: HMDMs, hC3a 100 nM, n ≥ 3, ± SEM
# Description: HMDMs were isolated using Ficoll-paque density centrifugation (GE Healthcare Bio-Science, Uppsala, Sweden) from buffy coat (of anonymous human donors) provided by the Australian Red Cross Blood Service, Brisbane. […] HMDMs were seeded to a 96-well clear-bottom black-wall assay plate at a density of 5 × 10^4 cells per well and allowed to adhere overnight. […] Intracellular calcium release was monitored using a fluorescence imaging plate reader (excitation 495 nm, emission 520 nm). […]
pIC50: −log10 of the molar value.
REPORTED ENDPOINT: pIC50

MOLECULE	TEST TARGET	MEAS VALUE
N=C(N)NCCCC(NC(=O)c1cnc(C(c2ccccc2)c2ccccc2)s1)C(=O)O (stereo not drawn)	C3aR (Homo sapiens)	6.22

I: Cc1nc(C(c2ccccc2)c2ccccc2)sc1C(=O)NC(CCCNC(=N)N)C(=O)O (stereo not drawn)
II: N=C(N)NCCCC(NC(=O)c1ccc(C(c2ccccc2)c2ccccc2)s1)C(=O)O (stereo not drawn)
Exercise: I or II : whose pIC50 is greater? Answer by quoting the chosen item's label.
Key: II
(II: 7.07, I: 5.70)
